Origin of measurements: ChEMBL document CHEMBL2062499

Entries annotated with measured IC50
- Tested on: Liver microsomes
- test: Antioxidant activity in Wistar rat liver microsomes assessed as inhibition of microsomal lipid peroxidation after 15 mins by MDA-TBA assay
- Format: functional, Microsome
Report only the number, with the unit uM/ml understood.

- COc1cc(C2CC(c3cc4ccccc4o3)=NN2C(=O)Nc2ccc(Cl)cc2)ccc1O (centres undefined): 121
- COc1cc(C2CC(c3cc4ccccc4o3)=NN2C(=O)Nc2ccc(O)c(O)c2)ccc1O (centres undefined): 11
- COc1cc(C2CC(c3cc4ccccc4o3)=NN2C(=O)Nc2ccccc2O)ccc1O (centres undefined): 22
- COc1cc(NC(=O)N2N=C(c3cc4ccccc4o3)CC2c2ccc(O)c(OC)c2)ccc1O (centres undefined): 12
- COc1cc(C2CC(c3cc4ccccc4o3)=NN2C(=O)Nc2ccc(Br)cc2)ccc1O (centres undefined): 115

// below: IC50 requested for another compound
Data request: Find IC50 (Liver microsomes) for the entry COc1cc(C2CC(c3cc4ccccc4o3)=NN2C(=O)Cl)ccc1O (centres undefined)
Data returned: 147
